# experiment: in vitro
# settings: human, Caco-2
metric: Papp B→A at 10 μM (×10⁻⁶ cm/s)
Write the answer as a number in ×10⁻⁶ cm/s, unit excluded.

// CC1CN(C(=O)c2cc(Cc3n[nH]c(=O)c4ccccc34)ccc2F)Cc2nnc(C(F)(F)F)n21 (stereo not shown) [SOMCL-9112] : Papp B→A at 10 μM value = 16.1

---

# experiment: Equilibrium solubility test (24 h, HPLC)
# Type: physicochemical
# settings: aqueous buffer, thermodynamic from solid; pH 4.5 phosphate buffer, 37° C., 100 rpm, 24 h
metric: solubility thermodynamic at 24 h (µg/mL)
Write the answer as a number in µg/mL, unit excluded.

// CC1CN(C(=O)c2cc(Cc3n[nH]c(=O)c4ccccc34)ccc2F)Cc2nnc(C(F)(F)F)n21 (stereo not shown) [SOMCL-9112] : solubility thermodynamic at 24 h value = 18.6
